# System: MYCN
# METHOD_DESCRIPTION: 3' UTR reporter interaction score (median-centred robust z-score of log2 firefly/Renilla activity); higher = less repression of the 3' UTR reporter
# CONDITION_LABEL: HEK293T; 48 h
OBSERVABLE: 3' UTR reporter interaction score
Please give only the number in your answer, with no unit.

UGUAAACAUCCUCGACUGGAAG    -0.46
UCACUCCUCUCCUCCCGUCUUCU    0.923
UAAAGUGCUGACAGUGCAGAU    -0.735

Prompt: Using the record for "UCUUGGAGUAGGUCAUUGGGUGG" , report its 3' UTR reporter interaction score.
Completion: -0.819

Prompt: Query: 3' UTR reporter interaction score; subject: "UUAAUGCUAAUCGUGAUAGGGG"
Completion: -0.313

Prompt: GET /values?readout=3' UTR reporter interaction score&item= "UAUUGCUUAAGAAUACGCGUAG"
Completion: 0.474

Prompt: What value of 3' UTR reporter interaction score has been recorded for this entry: "CAAAGUGCUCAUAGUGCAGGUAG"
Completion: -0.62

Prompt: Can you look up the measured 3' UTR reporter interaction score of "UUGUACAUGGUAGGCUUUCAUU" for me?
Completion: 1.27

Prompt: If you can, please state the reported 3' UTR reporter interaction score value of "UAAAGUAAAUAUGCACCAAAA" .
Completion: -0.59

###

Some sequences, each annotated with its measured 3' UTR reporter interaction score.
# Tested on: MYB
# METHOD_DESCRIPTION: 3' UTR reporter interaction score (median-centred robust z-score of log2 firefly/Renilla activity); higher = less repression of the 3' UTR reporter
# CONDITION_LABEL: HEK293T; 48 h
Quick one: just the number, no unit, thanks!

Field: example entries. Status: answers known.
UUGUGUCAAUAUGCGAUGAUGU    -0.649
UGUAACAGCAACUCCAUGUGGA    0.809
CUACAAAGGGAAGCACUUUCUC    0.666
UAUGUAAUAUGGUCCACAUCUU    0.474

Prompt: Which 3' UTR reporter interaction score is reported for this sequence? "AGGCAGUGUAUUGUUAGCUGGC"
Completion: -4.72

Prompt: What measured 3' UTR reporter interaction score goes with "AGGCUGCGGAAUUCAGGAC" ?
Completion: 0.132

Prompt: Could you tell me which 3' UTR reporter interaction score is on file for "GAAGGCGCUUCCCUUUGGAGU" ?
Completion: -0.216

Prompt: Field request: 3' UTR reporter interaction score | item: "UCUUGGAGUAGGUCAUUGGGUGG"
Completion: -0.086

###

# Test system: MYB
# METHOD_DESCRIPTION: 3' UTR reporter interaction score (median-centred robust z-score of log2 firefly/Renilla activity); higher = less repression of the 3' UTR reporter
# CONDITION_LABEL: HEK293T; 48 h
Let's look at some sequences and their measured 3' UTR reporter interaction score.
# output: bare number, no unit

Some sequences with known 3' UTR reporter interaction score results, for comparison:
UAGCAGCGGGAACAGUUCUGCAG    -2.27
UGCUUCCUUUCAGAGGGU    1.13
UUAUAAUACAACCUGAUAAGUG    -0.653
AGCUACAUCUGGCUACUGGGUCUC    -3.44

Then there is this sequence:
Prompt: Query: 3' UTR reporter interaction score; subject: "UGUUUGCAGAGGAAACUGAGAC"
Completion: 1.43

###

# System: MYB
# METHOD_DESCRIPTION: 3' UTR reporter interaction score (median-centred robust z-score of log2 firefly/Renilla activity); higher = less repression of the 3' UTR reporter
# CONDITION_LABEL: HEK293T; 48 h
// reported 3' UTR reporter interaction score per item
Please state the value as a number alone, without comment.

AAUGGCGCCACUAGGGUUGUGCA    0.208

Prompt: Quick one: 3' UTR reporter interaction score for "UAGCACCAUUUGAAAUCAGUGUU" ?
Completion: 0.253

Prompt: For "AAUAUUAUACAGUCAACCUCU" , what is its reported 3' UTR reporter interaction score?
Completion: -0.218

Prompt: Which 3' UTR reporter interaction score reading was recorded for the sequence "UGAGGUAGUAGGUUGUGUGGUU" ?
Completion: 0.859

Prompt: State the recorded 3' UTR reporter interaction score for this entry: "ACUCCAGCCCCACAGCCUCAGC"
Completion: 0.784

Prompt: Suppose we examine the sequence "UAUGUGGGAUGGUAAACCGCUU" ; what 3' UTR reporter interaction score value has been reported?
Completion: 1.45

Prompt: Find the recorded 3' UTR reporter interaction score belonging to "UUAAGGCACGCGGUGAAUGCCA" and report it.
Completion: -2.16

Prompt: Any idea what 3' UTR reporter interaction score was measured for "UGUAAACAUCCUUGACUGGA" ?
Completion: 0.77

###

3' UTR reporter interaction score reference
# System: NOTCH1
# METHOD_DESCRIPTION: 3' UTR reporter interaction score (median-centred robust z-score of log2 firefly/Renilla activity); higher = less repression of the 3' UTR reporter
# CONDITION_LABEL: HEK293T; 48 h

UGUAGUGUUUCCUACUUUAUGGA    -0.00364

Prompt: Quick one: 3' UTR reporter interaction score for "CCCAGAUAAUGGCACUCUCAA" ?
Completion: -0.834

###

# Test system: RB1
# METHOD_DESCRIPTION: 3' UTR reporter interaction score (median-centred robust z-score of log2 firefly/Renilla activity); higher = less repression of the 3' UTR reporter
# CONDITION_LABEL: HEK293T; 48 h
OBSERVABLE: 3' UTR reporter interaction score

AGGAAGCCCUGGAGGGGCUGGAGGU    -0.165

Prompt: I have this sequence here, "CCACUGCCCCAGGUGCUGCUGG" , and I need its recorded 3' UTR reporter interaction score.
Completion: 0.0205

Prompt: # 3' UTR reporter interaction score lookup, item "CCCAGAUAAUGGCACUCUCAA"
Completion: -2.36

Prompt: Request the reported 3' UTR reporter interaction score associated with "UCUCACACAGAAAUCGCACCCGUC"
Completion: -0.308

Prompt: Requested field: 3' UTR reporter interaction score. Item: "AAAACGGUGAGAUUUUGUUUU"
Completion: -1.03

Prompt: Query (sequence): "ACUAGACUGAAGCUCCUUGAGG" ; field requested: 3' UTR reporter interaction score
Completion: 1.2

Prompt: Need 3' UTR reporter interaction score of "AAUUGCACGGUAUCCAUCUGUA" , thanks.
Completion: 1.19

###

# System: FBXW7
# METHOD_DESCRIPTION: 3' UTR reporter interaction score (median-centred robust z-score of log2 firefly/Renilla activity); higher = less repression of the 3' UTR reporter
# CONDITION_LABEL: HEK293T; 48 h
Label yes for high-side 3' UTR reporter interaction score (at or above -0.5) and no for low-side 3' UTR reporter interaction score (below it).

Solved entries (count: 3):
UGUGCAAAUCCAUGCAAAACUGA    yes
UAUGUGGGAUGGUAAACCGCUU    yes
AACUGGCCCUCAAAGUCCCGCUUU    yes

Prompt: Determine whether measured 3' UTR reporter interaction score meets or exceeds -0.5 for "AGGAGGCAGCGCUCUCAGGAC"
Completion: no

Prompt: Is 3' UTR reporter interaction score at least -0.5? Consider "AAACCUGUGUUGUUCAAGAGUC"
Completion: yes

Prompt: Is it the case that "CAAAGUUUAAGAUCCUUGAAGU" has 3' UTR reporter interaction score reaching or exceeding -0.5?
Completion: no

Prompt: I'd appreciate it if you could say whether "GCUAGUCCUGACUCAGCCAGU" has 3' UTR reporter interaction score at least equal to -0.5.
Completion: yes

Prompt: Test whether the sequence "GUCCGCUCGGCGGUGGCCCA" records 3' UTR reporter interaction score of -0.5 or higher.
Completion: yes

###

# Tested on: PHF6
# METHOD_DESCRIPTION: 3' UTR reporter interaction score (median-centred robust z-score of log2 firefly/Renilla activity); higher = less repression of the 3' UTR reporter
# CONDITION_LABEL: HEK293T; 48 h
Please enter yes (1) where 3' UTR reporter interaction score is greater than or equal to 0.1, and no (0) where it is lower.

Reference set, count: 7
AGAUCAGAAGGUGAUUGUGGCU    yes (1)
CAAAGUGCCUCCCUUUAGAGUGU    yes (1)
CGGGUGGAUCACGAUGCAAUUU    no (0)
CAUCCCUUGCAUGGUGGAGGGU    no (0)
AGACCCUGGUCUGCACUCUAU    no (0)
GAAGUGCUUCGAUUUUGGGGUGU    yes (1)
UUCCCUUUGUCAUCCUUCGCCU    yes (1)

Consider the additional sequence presented here.
Prompt: Could you please find out whether "GGCAGGUUCUCACCCUCUCUAGG" has 3' UTR reporter interaction score that meets 0.1 or exceeds it?
Completion: no (0)
